- target under test: human HDAC6 enzyme (Homo sapiens, UniProt Q9UBN7)
- Sequence (Q9UBN7 1-1215): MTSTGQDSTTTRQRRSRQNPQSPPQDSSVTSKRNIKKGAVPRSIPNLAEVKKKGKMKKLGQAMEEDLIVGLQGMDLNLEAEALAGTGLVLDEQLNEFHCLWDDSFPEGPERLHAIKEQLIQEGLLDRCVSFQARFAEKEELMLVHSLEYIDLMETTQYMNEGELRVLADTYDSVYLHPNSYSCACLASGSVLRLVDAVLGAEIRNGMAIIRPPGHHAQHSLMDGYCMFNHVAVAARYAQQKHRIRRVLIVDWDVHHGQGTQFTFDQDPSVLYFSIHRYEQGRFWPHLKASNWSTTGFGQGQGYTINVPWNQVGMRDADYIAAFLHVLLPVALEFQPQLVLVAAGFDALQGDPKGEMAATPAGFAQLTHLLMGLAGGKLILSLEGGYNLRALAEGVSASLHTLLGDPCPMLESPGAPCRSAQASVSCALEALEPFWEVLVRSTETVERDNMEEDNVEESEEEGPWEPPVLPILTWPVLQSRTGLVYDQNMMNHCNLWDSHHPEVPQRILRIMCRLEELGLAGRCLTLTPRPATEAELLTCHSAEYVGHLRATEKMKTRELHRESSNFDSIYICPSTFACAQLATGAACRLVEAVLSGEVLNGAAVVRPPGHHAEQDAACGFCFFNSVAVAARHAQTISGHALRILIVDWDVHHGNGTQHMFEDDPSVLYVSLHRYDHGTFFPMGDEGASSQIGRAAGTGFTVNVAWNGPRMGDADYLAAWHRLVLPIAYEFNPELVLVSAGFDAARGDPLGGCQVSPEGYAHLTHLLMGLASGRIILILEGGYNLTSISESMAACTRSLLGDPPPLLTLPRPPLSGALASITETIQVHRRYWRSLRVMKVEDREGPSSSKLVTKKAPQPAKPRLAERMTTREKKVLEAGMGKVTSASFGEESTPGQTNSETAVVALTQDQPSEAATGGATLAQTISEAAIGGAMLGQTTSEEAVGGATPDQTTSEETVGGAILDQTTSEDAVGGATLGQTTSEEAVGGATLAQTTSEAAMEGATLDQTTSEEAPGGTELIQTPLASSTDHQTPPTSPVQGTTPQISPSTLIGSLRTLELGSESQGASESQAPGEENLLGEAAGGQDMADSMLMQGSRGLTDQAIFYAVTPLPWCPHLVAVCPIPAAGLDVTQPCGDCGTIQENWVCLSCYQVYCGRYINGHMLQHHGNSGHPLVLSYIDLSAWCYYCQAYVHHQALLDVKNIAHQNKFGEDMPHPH
pIC50: −log10 of the molar value.
reported property: pIC50

Study these solved cases before continuing.
smiles record: O=c1cc(-c2noc(C(F)(F)F)n2)ccn1CC#Cc1ccccc1
reported property: pIC50
reported measurement: 6.00 to 6.30

smiles record: O=c1cc(-c2nnc(C(F)F)o2)ccn1CC#Cc1ccc2scnc2c1
reported property: pIC50
reported measurement: 6.30 to 7.00

smiles record: O=c1cc(-c2nnc(C(F)F)o2)ccn1CC#Cc1ccc(F)cc1
reported property: pIC50
reported measurement: > 7.00

smiles record: O=c1cc(-c2nnc(C(F)F)o2)ccn1CC#Cc1cccc(F)c1
reported property: pIC50
reported measurement: > 7.00

smiles record: Cc1ccc(C#CCn2ccc(-c3nnc(C(F)F)o3)cc2=O)cc1
reported property: pIC50
reported measurement: 6.30 to 7.00

I'm hoping you can list pIC50 for every compound here, please.
1. Cc1cc(-c2nnc(C(F)F)o2)cc(=O)n1CC#Cc1cccc(Cl)c1
2. O=c1cc(-c2nnc(C(F)F)o2)ccn1CC#Cc1cccc(Cl)c1F
3. O=c1cc(-c2nnc(C(F)F)o2)ccn1CC#Cc1cccc(Cl)c1
4. O=c1cc(-c2nnc(C(F)F)o2)ccn1CC#Cc1ccncc1
5. O=c1cc(-c2nnc(C(F)F)o2)ccn1CC#Cc1cc(Cl)ccc1F
6. O=c1cc(-c2nnc(C(F)F)o2)ccn1CC#Cc1cccc(Cl)n1
7. Cc1ncc(C#CCn2ccc(-c3nnc(C(F)F)o3)cc2=O)[nH]1
8. O=c1cc(-c2nnc(C(F)F)o2)ccn1CC#Cc1ccc(Cl)cc1

Response:
6.30 to 7.00
> 7.00
> 7.00
> 7.00
6.30 to 7.00
> 7.00
> 7.00
> 7.00

I'm hoping you can list pIC50 for every compound here, please.
1. O=c1cc(-c2nnc(C(F)F)o2)ccn1CC#Cc1ccccn1
2. O=c1cc(-c2nnc(C(F)F)o2)ccn1CC#Cc1ccsc1
3. Cc1nc2ccc(C#CCOc3cc(-c4nnc(C(F)F)o4)ccn3)cc2s1
4. O=c1cc(-c2nnc(C(F)F)o2)ccn1CC#Cc1cccc(Br)c1
5. CS(=O)(=O)c1cccc(C#CCn2ccc(-c3nnc(C(F)F)o3)cc2=O)c1
6. O=c1cc(-c2nnc(C(F)F)o2)ccn1CC#Cc1ccccc1Cl

Response:
1. > 7.00
2. > 7.00
3. 6.00 to 6.30
4. 6.30 to 7.00
5. > 7.00
6. > 7.00
